B1: TAF7L (parent)
chain: PDVENEVKRLLRSDAEAVSTRWEV

- Variants of: B1
- MEASUREMENT NOTES: protein stability index of a GFP-peptide fusion (GPS, HEK-293T) (PSI 1-6); higher = more stable;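 further: lentivirally expressed fusions sorted by FACS into six bins by GFP to DsRed ratio, PSI derived from sequencing read proportions per bin multiplied by bin number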
- EXPERIMENTAL CONDITIONS: c terminus: a fixed tail appended
RESULT TYPE: protein stability index
# print the numeric value only

R21I : 2.96

Fill in protein stability index for record E4N 3.05

Identify protein stability index associated with the variant R21T 3.06

Tell me measured protein stability index for A15N please. 3.54

Return the recorded protein stability index value; entry: E4W 1.93

Specify protein stability index for P1L and stop. 3.52

Give me measured protein stability index, please, for this variant: A15T 1.9

Specify measured protein stability index for A15P . 3.19

Fill in protein stability index for record D2P 3.58

Could you please provide reported protein stability index for P1E ? Thanks! 4.44

Return protein stability index (reported value) for this variant: A17P 3.28

Note down protein stability index recorded for R21D 5.01

Fill in protein stability index for record L11A 4.29

Given the variant T20E , write its reported protein stability index. 3.99

Supply recorded protein stability index for S13M here. 3.54

For the variant K8C , give its reported protein stability index. 3.23

Please look at this variant and report its protein stability index: E4D 2.19

Give a short answer stating reported protein stability index for E16P . 3.18

Measured values drawn from the supplement of paper PMC10567573 for this set.
